Target: Voltage-gated potassium channel subunit beta-2 (Rattus norvegicus)
Assay: inhibitors of rat Kvbeta2 reductase activity – biochemical, NADPH fluorescence, primary screen (AID 622);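 also: slope of raw intensity against log time taken from 70 to 1610 s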
Conditions: recombinant KvBeta, 4-cyanobenzaldehyde reduction, at 10 µM, stronger effect = higher value
The entries below come with measured fluorescence slope values attached.

{"columns": ["compound", "experimentalSystem", "fluorescence slope"],
 "data": [
  ["Cn1c(C(=O)NCCC2=CCCCC2)cc2c(=O)n3ccccc3nc21", "Voltage-gated potassium channel subunit beta-2 (Rattus norvegicus)", -0.128],
  ["Cc1nc2nc(-c3cccnc3)nn2c(C)c1Cl", "Voltage-gated potassium channel subunit beta-2 (Rattus norvegicus)", -0.333],
  ["CCn1ncc(C2=NOC(C(=O)Nc3ccc4c(c3)OCO4)C2)c1C (stereo not drawn)", "Voltage-gated potassium channel subunit beta-2 (Rattus norvegicus)", -0.5],
  ["CCOc1ccccc1N1C(=O)c2ccc(C(=O)Nc3cccnc3)cc2C1=O", "Voltage-gated potassium channel subunit beta-2 (Rattus norvegicus)", -0.482],
  ["CCOC(=O)/C=C1\\SCC(=O)N1Cc1nnc(-c2ccccc2Br)o1", "Voltage-gated potassium channel subunit beta-2 (Rattus norvegicus)", -0.452],
  ["CCOc1nc(-c2ccccc2)ccc1-c1noc(-c2cccnc2)n1", "Voltage-gated potassium channel subunit beta-2 (Rattus norvegicus)", -0.427],
  ["Cc1csc(OCc2ccc(C#N)cc2)n1", "Voltage-gated potassium channel subunit beta-2 (Rattus norvegicus)", -0.6],
  ["O=C(O)c1cccc(CN2C(=O)SC(Nc3ccccc3)C2=O)c1 (stereo not drawn)", "Voltage-gated potassium channel subunit beta-2 (Rattus norvegicus)", -0.405]
]}
